- experimental-target: Human β2 adrenoceptor (Homo sapiens, UniProt P07550)
- Construct: purchased Perkin Elmer
- Sequence (P07550 whole entry): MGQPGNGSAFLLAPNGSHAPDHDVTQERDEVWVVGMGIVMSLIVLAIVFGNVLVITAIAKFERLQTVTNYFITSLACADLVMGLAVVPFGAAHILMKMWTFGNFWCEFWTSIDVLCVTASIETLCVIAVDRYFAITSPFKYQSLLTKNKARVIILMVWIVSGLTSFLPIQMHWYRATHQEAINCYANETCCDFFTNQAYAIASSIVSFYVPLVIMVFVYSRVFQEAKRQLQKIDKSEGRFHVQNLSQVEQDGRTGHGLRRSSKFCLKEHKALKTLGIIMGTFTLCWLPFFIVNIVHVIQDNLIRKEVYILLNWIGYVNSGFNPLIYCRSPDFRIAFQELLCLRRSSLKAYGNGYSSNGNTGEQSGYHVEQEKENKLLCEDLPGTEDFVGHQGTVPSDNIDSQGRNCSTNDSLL
- test: β2 adrenoceptor radioligand binding assay
- condition-description: human β2 adrenoceptor membranes, 125-I cyanopindolol; Ki from IC50 by Cheng and Prusoff; read-out: B2 binding affinity (Ki class)
measured-metric: Ki

Exercise: Recorded Ki of O=C(NCCCCNC[C@H](O)c1ccc(O)c2[nH]c(=O)ccc12)c1ccc(CNC2(C(=O)OCC3CCN(Cc4cccs4)CC3)CCc3ccccc32)s1 (some centres unmarked) , please.
Solution: > 10 nM

Exercise: Dear colleague, I am looking for the recorded Ki of the following compound: O=C(NCCCCNC[C@H](O)c1ccc(O)c2[nH]c(=O)ccc12)c1ccc(CNC2(C(=O)OCC3CCN(Cc4ccccc4)CC3)CCc3ccccc32)s1 (single isomer, unassigned; stereoisomer 1) [Compound 22]
Solution: 1 to 10 nM

Exercise: I would be grateful if you could share the reported Ki for Cc1cccc2c1CCC2(NCc1cccc(C(=O)NCCCCNC[C@H](O)c2ccc(O)c3[nH]c(=O)ccc23)c1)C(=O)O[C@H]1CN2CCC1CC2 (some centres unmarked) .
Solution: < 1 nM

Exercise: // query Ki value for entry O=C(O[C@H]1CN2CCC1CC2)C1(NCc2cccc(OCCCCCNC[C@H](O)c3ccc(O)c4[nH]c(=O)ccc34)c2)CCc2ccccc21 (some centres unmarked)
Solution: < 1 nM

Exercise: Which measured Ki value corresponds to O=C(NCCCCNC[C@H](O)c1ccc(O)c2[nH]c(=O)ccc12)c1ccc(CNC2(C(=O)OC3CCN(Cc4ccccc4)CC3)CCc3ccccc32)s1 (single isomer, unassigned; stereoisomer 2) [Compound 27] ?
Solution: > 10 nM
